B1: glmS ribozyme (parent)
chain: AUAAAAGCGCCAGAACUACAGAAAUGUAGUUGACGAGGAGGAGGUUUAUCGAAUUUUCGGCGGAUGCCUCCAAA

- Variants of: B1
- Assay Text: self-cleavage kobs at 160 uM GlcN6P; higher = faster cleavage; RNA array
- Recorded Conditions: with glucosamine-6-phosphate
This sample holds only a part of the variants without activity.
Measured Endpoint: self-cleavage kobs at 160 uM GlcN6P

Mutations: G9U G38A
self-cleavage kobs at 160 uM GlcN6P: < 1e-05 s⁻¹
--
Mutations: A14C U54G
self-cleavage kobs at 160 uM GlcN6P: 0.000219 s⁻¹
--
Mutations: A48U C50U
self-cleavage kobs at 160 uM GlcN6P: < 1e-05 s⁻¹

Could you tell me self-cleavage kobs at 160 uM GlcN6P for each of these variants? They are listed below.
1. C10A U30G
2. G38A A39U
3. C10U C11A
4. A12U C70U
5. G13U A15U G44A

Given back:
1. < 1e-05 s⁻¹
2. < 1e-05 s⁻¹
3. < 1e-05 s⁻¹
4. 0.0134 s⁻¹
5. < 1e-05 s⁻¹

Please supply self-cleavage kobs at 160 uM GlcN6P for each of the following items, keeping them in order.
1. C8U U49C
2. U49G C68U
3. A53C G63A
4. A42U C61A
5. C11U A53C
6. A12C U31G
7. G44C G62C
8. C10A U30G A48U

Given back:
1: < 1e-05 s⁻¹; 2: 5.03e-05 s⁻¹; 3: < 1e-05 s⁻¹; 4: < 1e-05 s⁻¹; 5: 3.37e-05 s⁻¹; 6: 0.000245 s⁻¹; 7: < 1e-05 s⁻¹; 8: < 1e-05 s⁻¹

Values from the supplement of paper PMC7125110
